Below, each entry is listed alongside its reported GI50.
- Test system: UO-31 renal
- ASSAY_INFO: NCI tumour cell line growth inhibition, 48 h

COMPOUND | GI50
O=C(Nc1cccc(-n2cc(-c3ccncc3)c(-c3ccc(O)c(Cl)c3)n2)c1)c1cc(C(F)(F)F)cc(C(F)(F)F)c1 | 4.15 µM
N#Cc1ccccc1C#C/C=C\C#CC#C/C=C\C#Cc1ccccc1C#N | 21.8 µM
Cc1ccc(NC(=O)Nc2c(Cl)cccc2Cl)cn1 | 47 µM
COc1ccc2nc(-c3ccccc3)cc(Nc3cccc(C(C)=O)c3)c2c1 | 22.8 µM
Cc1ccc(Cl)cc1NC(=O)c1cc2ccccc2cc1O | 0.201 µM
Cc1nc(-c2cnc(NC(C)C)n(C)c2=O)ccc1Oc1ccnc(-c2cnn(C)c2)c1 | 15.7 µM
Cc1ccc(/C=C/c2c(C(=O)/C=C/c3ccc(Cl)cc3)c(C)nc3ccccc23)cc1 | 1.16 µM
CCCCCCCCCC(CCCC(O)CC(=O)O)OC1OC(COC2OC(C)C(OC(C)=O)C(O)C2O)C(O)C(O)C1OC1OC(CO)C(O)C(O)C1OC1OC(C)C(OC(=O)CC(C)C)C(O)C1O (stereo not given) | > 35 µM
COc1cccc(C2=C(c3cn(C)c4cc(F)ccc34)C(=O)NC2=O)c1 | 9.19 µM
COc1ccccc1/C=C/C1=C(C)CCC(c2ccccc2OC)C1C (stereo not given) | 0.371 µM

----------
Below, each entry is listed alongside its reported TGI.
- Test system: COLO 205 colon
- ASSAY_INFO: NCI tumour cell line growth inhibition, 48 h
ASSAY_METRIC: TGI

MOLECULE | TARGET_SYSTEM | ASSAY_METRIC | ASSAY_VALUE
Cc1cc(=O)n(-c2c(C)cccc2Cl)c(/C=C(\O)c2ccncc2)n1 | COLO 205 colon | TGI | > 100 µM
COC1[C@H](NC(=O)OC(C)(C)C)C(=O)N1Cc1ccccc1 (stereo not given in full) | COLO 205 colon | TGI | > 100 µM
ClCc1ccc(Cn2cnc3c(Cl)ncnc32)cc1 | COLO 205 colon | TGI | > 100 µM
O=S(=O)(c1ccccc1)N1CN2CN(C1)CN(S(=O)(=O)c1ccccc1)C2 | COLO 205 colon | TGI | > 100 µM
CC(C)(C)NC(=O)[C@H]1CC[C@H]2[C@@H]3CC[C@H]4NC(=O)C=C[C@]4(C)[C@H]3CC[C@]12C | COLO 205 colon | TGI | > 100 µM
O=C(O)C1CCCCN1C(=O)Cc1c[nH]c2ccccc12 (stereo not given) | COLO 205 colon | TGI | > 100 µM
O=C(Cc1csc2nc(-c3ccc(Cl)cc3)cn12)N/N=C/c1ccccc1O | COLO 205 colon | TGI | > 100 µM
CSc1nn(C)cc2nc(C)nc1-2 | COLO 205 colon | TGI | > 100 µM
O=C(Cn1c(=O)oc2ccc(C(=O)c3ccc(F)cc3)cc21)c1ccccc1 | COLO 205 colon | TGI | > 100 µM
Cc1ccc2nc(-c3ccc(NC(=O)c4ccc(N)cc4)c(S(=O)(=O)O)c3)sc2c1 | COLO 205 colon | TGI | > 100 µM
COc1cc(C2c3[nH]c4ccccc4c3[C@@H](Nc3ccc(C#N)cc3)[C@H]3COC(=O)N23)cc(OC)c1O (stereo not given in full) | COLO 205 colon | TGI | > 3.81 µM
COC(=O)C1=C(OC(=O)/C=C/c2ccc(Cl)cc2)C(C(=O)OC)[C@]2(O)[C@@H](C(=O)OC)[C@H]1C[C@@H](c1ccccc1)[C@@H]2C(=O)OC (stereo not given in full) | COLO 205 colon | TGI | > 22.2 µM
COc1cc(/C=C/c2ccc(Br)cc2)cc(OC)c1OC | COLO 205 colon | TGI | 25.7 µM
CCCCC(/C=C\COC1CCCCO1)=C/C(=O)OCC (stereo not given) | COLO 205 colon | TGI | > 100 µM
C[C@@H]1OC2(O)[C@H]3CCCN3S(=O)(=O)CCN2C1=O (stereo not given in full) | COLO 205 colon | TGI | > 100 µM
C[C@@H]1CCC2C(C)(C)C(/C=C\C=O)C3(C)OC213 (stereo not given in full) | COLO 205 colon | TGI | 55.4 µM
CCOC(=O)C(NO)C(Sc1ccccc1)c1ccc(OC)cc1 (stereo not given) | COLO 205 colon | TGI | > 100 µM
CC/C(=N/O)c1ccc2[nH]c3c(C)cc([N+](=O)[O-])c(C)c3c2c1 | COLO 205 colon | TGI | > 100 µM
COC1=C(OC)C(=O)C(Sc2ccc3ccccc3c2)=CC1=O | COLO 205 colon | TGI | 23.7 µM
CCCCCCNC(=S)N/N=C(\C)c1ccccn1 | COLO 205 colon | TGI | 18.2 µM

----------
Below, each entry is listed alongside its reported TGI.
- System: M14 melanoma
- ASSAY_INFO: NCI tumour cell line growth inhibition, 48 h
ASSAY_METRIC: TGI

MOLECULE | ASSAY_METRIC | ASSAY_VALUE
CC/C(=N/O)c1ccc2[nH]c3c(C)cc([N+](=O)[O-])c(C)c3c2c1 | TGI | > 100 µM
CC(=O)[CH-]C(=O)c1ccccc1.CC(=O)[CH-]C(=O)c1ccccc1.CC(C)CCC[C@H](C)C1CCC2[C@@H]3CC=C4C[C@@H]([O-])CC[C@]4(C)C3CC[C@@]21C.CC(C)CCC[C@H](C)C1CCC2[C@@H]3CC=C4C[C@@H]([O-])CC[C@]4(C)C3CC[C@@]21C.Cl.[Ti+4] (stereo partly drawn) | TGI | > 25 µM
Cc1cc(C)c2c(c1)CC1(Cc3ccc(C)c(C)c3C1=O)C2=O (stereo not drawn) | TGI | > 100 µM
CC(=O)C1(C)CC(C#N)(C#N)C(C#N)=C1N (stereo not drawn) | TGI | > 100 µM
CN1CCN(c2ccc(NC(=O)c3cncnc3Nc3ccc(OCc4cccc(F)c4)c(Cl)c3)cc2)CC1 | TGI | 1.71 µM
COC1CC(C)([N+](=O)[O-])C(O)C(C)O1 (stereo not drawn) | TGI | > 100 µM
COc1cc(/C=C/c2ccc(Br)cc2)cc(OC)c1OC | TGI | 87.6 µM
Cc1ccc(-c2nc3cc(Cl)c(Cl)cc3nc2C#N)cc1 | TGI | > 100 µM
COc1ccc(-c2nn(-c3ccc(NC(=O)c4cc(Cl)cc(Cl)c4)cc3)cc2-c2ccncc2)cc1Cl | TGI | 9.08 µM
CCOC(=O)CCC(NC(=O)c1ccc(N=Cc2nc3ccccc3nc2-c2ccccc2)cc1)C(=O)OCC (stereo not drawn) | TGI | > 100 µM
Cc1c(-c2ccc(O)cc2)oc(=O)c2ccc(O)cc12 | TGI | > 100 µM
Cc1cc2ccc(OC(=O)c3ccc(N=C(N)N)cc3)cc2oc1=O | TGI | 97.7 µM
CCN(CC)CCCNc1ccc([N+](=O)[O-])c2nc3ccc(OC)cc3c(N)c12 | TGI | > 6.1 µM

----------
- System: SNB-19 CNS
- ASSAY_INFO: NCI tumour cell line growth inhibition, 48 h

COMPOUND | TGI
CCOc1ccc2c(c1)CN(Cc1ccc(Cl)cc1)CO2 | > 100 µM
COc1ccc(Cl)cc1Nc1nc(C(F)(F)F)ccc1C(=O)N/N=C/c1cccnc1 | > 100 µM
COC(=O)c1cc(NC(=O)c2cc(NC(=O)Cc3c[nH]c4ccccc34)cn2C)cn1C | 85.7 µM
Nc1cc(C(F)(F)F)c(-c2cc(N3CCOCC3)nc(N3CCOCC3)n2)cn1 | > 100 µM
N=c1ccc2nc(N)nn(O)c-2c1 | > 100 µM
OC(Cc1ccc2ccccc2n1)(C(F)(F)Cl)C(F)(F)Cl | > 10 µM
COC1CC(C)([N+](=O)[O-])C(O)C(C)O1 (stereo not drawn) | > 100 µM
CC(=O)OCC1OC(n2c(N)c(C#N)c(C)c(C#N)c2=S)C(OC(C)=O)C(OC(C)=O)C1OC(C)=O (stereo not drawn) | > 100 µM
O=C(Nc1cccc(-n2cc(-c3ccncc3)c(-c3ccc(O)c(Cl)c3)n2)c1)c1cc(C(F)(F)F)cc(C(F)(F)F)c1 | > 50 µM
COc1cc(C2c3[nH]c4ccccc4c3[C@@H](Nc3ccc(C#N)cc3)[C@H]3COC(=O)N23)cc(OC)c1O (stereo partly drawn) | > 10 µM
NC(=O)C(=CNC(=S)Nc1ccc(S(=O)(=O)Nc2ccccn2)cc1)C(N)=O | > 100 µM
COC1OC(CBr)C(OC(=O)c2ccccc2)C(OS(=O)(=O)c2ccc(C)cc2)C1Br (stereo not drawn) | > 100 µM
CCN(CC)c1ccc(C2NC(=O)c3ccccc3N2)cc1 (stereo not drawn) | > 100 µM
